Every entry's value here was drawn from paper PMC7156458.

Assignment: determine reported Th-T fluorescence, mean of three wells for the given compounds.
target: Aβ42 (Homo sapiens, UniProt P05067); test: Th-T (thioflavin-T) assay of Aβ42 aggregation; type: biochemical; details: Aβ42 aggregation time course, reading M134
Sequence (P05067 672-713): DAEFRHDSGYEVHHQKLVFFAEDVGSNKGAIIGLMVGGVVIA
Lab note: write the figure by itself, no unit.

Give Th-T fluorescence, mean of three wells (Aβ42 (Homo sapiens, UniProt P05067)) of the following compound: C=C1CCC2C(C)(CCC=C(C)C)C(O)CCC2(C)C1Cc1c(OC)oc(C)c(C)c1=O (stereo not drawn) [Compound 11]
3.347

Same again, this time with C=C1CCC2C(C)(CCC=C(C)C)C(=O)CCC2(C)C1Cc1c(O)c(C)c(C)oc1=O (stereo not drawn)
2.2077

Same again, this time with C=C1CCC2C(C)(CCC=C(C)C)C(O)CCC2(C)C1Cc1c(O)c(C)c(C)oc1=O (stereo not drawn) [Compound 4]
2.744

====

Assignment: determine reported Th-T fluorescence, mean of three wells for the given compounds.
target: Aβ42 (Homo sapiens); assay: Th-T (thioflavin-T) assay of Aβ42 aggregation; type: biochemical; conditions: Aβ42 aggregation time course, reading M129
Lab note: write the figure by itself, no unit.

Give Th-T fluorescence, mean of three wells (Aβ42 (Homo sapiens)) of the following compound: CC(C)=CCC/C(C)=C/CC/C(C)=C/CC/C(C)=C/Cc1c(O)c(C)c(C)oc1=O [Compound 2]
2.9294

Same again, this time with C=C1CC[C@@H]2[C@](C)(CC[C@H]3O[C@H](C=C(C)C)C[C@@]23C)[C@@H]1Cc1c(OC)oc(CO)c(C(=O)OC)c1=O [Compound 21]
1.041

Same again, this time with C=C1CCC2C(C)(CCC=C(C)C)C(O)CCC2(C)C1Cc1c(O)c(C)c(C)oc1=O (stereo not shown) [Compound 4]
2.759

Same again, this time with C=C1CCC2C(C)(CC(=O)C=C(C)C)C(O)CCC2(C)C1Cc1c(O)c(C)c(C)oc1=O (stereo not shown) [Compound 7]
3.461

====

target: Aβ42 (Homo sapiens, UniProt P05067); test: Th-T (thioflavin-T) assay of Aβ42 aggregation; format: biochemical; conditions: reading M28; Supplementary Fig. 47 source data
readoutLabel: Th-T fluorescence, mean of three wells
Lab note: write the figure by itself, no unit.

Given C=C1CCC2C(C)(CC(=O)C=C(C)C)C(O)CCC2(C)C1Cc1c(OC)oc(C)c(C)c1=O (stereo not drawn) , state its recorded Th-T fluorescence, mean of three wells.
3.572

Same again, this time with C=C1CCC2C(C)(CC(=O)C=C(C)C)C(O)CCC2(C)C1Cc1c(OC)oc(CO)c(C)c1=O (stereo not drawn)
3.14

Same again, this time with C=C1CC[C@H]2[C@]3(C)C[C@@H](C=C(C)C)O[C@H]3CC[C@]2(C)[C@@H]1Cc1c(OC)oc(CO)c(C)c1=O
2.908

Same again, this time with C=C1CC[C@H]2[C@]3(C)C[C@H](C=C(C)C)O[C@H]3CC[C@]2(C)[C@@H]1Cc1c(OC)oc(C)c(C)c1=O
4.012

Same again, this time with C=C1CC[C@@H]2[C@](C)(CC[C@H]3O[C@H](C=C(C)C)C[C@@]23C)[C@@H]1Cc1c(O)c(C)c(C)oc1=O
2.868

Same again, this time with C=C1CC[C@H]2[C@]3(C)C[C@@H](C=C(C)C)O[C@H]3CC[C@]2(C)[C@@H]1Cc1c(O)c(C)c(C)oc1=O
2.461

====

Assignment: determine reported Th-T fluorescence, mean of three wells for the given compounds.
biological target: UniProt:P05067; assay: Th-T (thioflavin-T) assay of Aβ42 aggregation; type: biochemical; conditions: compound at 50; reading M46 of time course
Lab note: write the figure by itself, no unit.

Given C=C1CC[C@@H]2[C@](C)(CC[C@H]3O[C@H](C=C(C)C)C[C@@]23C)[C@@H]1Cc1c(OC)oc(CO)c(C(=O)OC)c1=O , state its recorded Th-T fluorescence, mean of three wells.
0.2145

Same again, this time with C=C1CCC2C(C)(CCC=C(C)C)C(O)CCC2(C)C1Cc1c(OC)oc(CO)c(C)c1=O (centres unmarked)
1.488

Same again, this time with C=C1CC[C@@H]2[C@](C)(CC[C@H]3O[C@H](C=C(C)C)C[C@@]23C)[C@@H]1Cc1c(OC)oc(CO)c(C)c1=O
2.107

Same again, this time with C=C1CCC2C(C)(CCC=C(C)C)C(O)CCC2(C)C1Cc1c(OC)oc(C)c(C(=O)OC)c1=O (centres unmarked)
5.058

Same again, this time with C=C1CCC2C(C)(CCC=C(C)C)C(O)CCC2(C)C1Cc1c(OC)oc(CO)c(C(=O)OC)c1=O (centres unmarked)
0.4569

====

Assignment: determine reported Th-T assay plate reading, mean of three wells (Supplementary Fig. 47) for the given compounds.
target: UniProtKB P05067; assay: Th-T (thioflavin-T) assay of Aβ42 aggregation; type: biochemical; details: measurement M3; source data, Ab alone and No Ab as controls
Lab note: write the figure by itself, no unit.

Given C=C1CC[C@@H]2[C@](C)(CC[C@H]3O[C@H](C=C(C)C)C[C@@]23C)[C@@H]1Cc1c(OC)oc(CO)c(C)c1=O , state its recorded Th-T assay plate reading, mean of three wells (Supplementary Fig. 47).
0.2417

Same again, this time with C=C1CCC2C(C)(CCC=C(C)C)C(O)CCC2(C)C1Cc1c(OC)oc(CO)c(C)c1=O (centres unmarked)
0.2612

Same again, this time with C=C1CC[C@@H]2[C@](C)(CC[C@H]3O[C@H](C=C(C)C)C[C@@]23C)[C@@H]1Cc1c(O)c(C)c(C)oc1=O
0.3112

Same again, this time with C=C1CC[C@H]2[C@]3(C)C[C@H](C=C(C)C)O[C@H]3CC[C@]2(C)[C@@H]1Cc1c(O)c(C)c(C)oc1=O
0.3313

Same again, this time with C=C1CCC2C(C)(CCC=C(C)C)C(O)CCC2(C)C1Cc1c(OC)oc(C)c(C)c1=O (centres unmarked) [Compound 15, viridoxin A hydrolysate]
0.2068

Same again, this time with C=C1CCC2C(C)(CC(=O)C=C(C)C)C(O)CCC2(C)C1Cc1c(OC)oc(C)c(C)c1=O (centres unmarked)
0.2865

Same again, this time with C=C1CCC2C3(C)CC(C=C(C)C)OC3CCC2(C)C1Cc1c(OC)oc(C)c(C)c1=O (centres unmarked)
0.2017

Same again, this time with C=C1CC[C@H]2[C@]3(C)C[C@@H](C=C(C)C)O[C@H]3CC[C@]2(C)[C@@H]1Cc1c(OC)oc(CO)c(C)c1=O
0.2961

Same again, this time with C=C1CCC2C(C)(CCC=C(C)C)C(O)CCC2(C)C1Cc1c(O)c(C)c(C)oc1=O (centres unmarked) [Compound 9, higginsianin B]
0.2484

Same again, this time with C=C1CCC2C(C)(CCC=C(C)C)C(O)CCC2(C)C1Cc1c(OC)oc(C)c(C(=O)OC)c1=O (centres unmarked)
0.24

Same again, this time with C=C1CC[C@H]2[C@]3(C)C[C@H](C=C(C)C)O[C@H]3CC[C@]2(C)[C@@H]1Cc1c(OC)oc(C)c(C)c1=O
0.1808

Same again, this time with C=C1CCC2C(C)(CCC=C(C)C)C(O)CCC2(C)C1Cc1c(OC)oc(CO)c(C(=O)OC)c1=O (centres unmarked)
0.2328

Same again, this time with C=C1CC[C@H]2[C@]3(C)C[C@@H](C=C(C)C)O[C@H]3CC[C@]2(C)[C@@H]1Cc1c(O)c(C)c(C)oc1=O
0.3145

Same again, this time with C=C1CCC2C(C)(CCC=C(C)C)C(O)CCC2(C)C1Cc1c(OC)oc(C)c(C)c1=O (centres unmarked) [Compound 11]
0.2915

====

target: Aβ42 (Homo sapiens); assay: Th-T (thioflavin-T) assay of Aβ42 aggregation; assay type: biochemical; conditions: time-course reading M105; Supplementary Fig. 47 source data
Assignment: determine reported Th-T fluorescence, mean of three wells for the given compounds.
Lab note: write the figure by itself, no unit.

Given C=C1CC[C@@H]2[C@](C)(CC[C@H]3O[C@H](C=C(C)C)C[C@@]23C)[C@@H]1Cc1c(OC)oc(CO)c(C)c1=O , state its recorded Th-T fluorescence, mean of three wells.
4.225

Same again, this time with C=C1CC[C@H]2[C@]3(C)C[C@@H](C=C(C)C)O[C@H]3CC[C@]2(C)[C@@H]1Cc1c(O)c(C)c(C)oc1=O
2.704

Same again, this time with C=C1CCC2C(C)(CC(=O)C=C(C)C)C(O)CCC2(C)C1Cc1c(OC)oc(C)c(C)c1=O (stereo not drawn)
3.605

====

target: Aβ42 (Homo sapiens, UniProt P05067); assay: Th-T (thioflavin-T) assay of Aβ42 aggregation; assay type: biochemical; conditions: Aβ42 aggregation time course, reading M126
Assignment: determine reported Th-T fluorescence, mean of three wells for the given molecules.
Lab note: write the figure by itself, no unit.

Given C=C1CCC2C(C)(CCC=C(C)C)C(=O)CCC2(C)C1Cc1c(O)c(C)c(C)oc1=O (stereo not drawn) , state its recorded Th-T fluorescence, mean of three wells.
2.218

Same again, this time with C=C1CCC2C(C)(CCC=C(C)C)C(O)CCC2(C)C1Cc1c(OC)oc(CO)c(C(=O)OC)c1=O (stereo not drawn)
1.037

Same again, this time with C=C1CC[C@H]2[C@]3(C)C[C@H](C=C(C)C)O[C@H]3CC[C@]2(C)[C@@H]1Cc1c(OC)oc(CO)c(C)c1=O
3.753
